B1: TPR 5TU (parent)
chain: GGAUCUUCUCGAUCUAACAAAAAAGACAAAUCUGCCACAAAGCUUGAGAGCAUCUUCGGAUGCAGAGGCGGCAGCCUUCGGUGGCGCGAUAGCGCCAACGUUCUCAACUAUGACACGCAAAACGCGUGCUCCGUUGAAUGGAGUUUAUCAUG

Variants of: B1
method notes: polymerase ribozyme fitness, log enrichment relative to wild type (log ratio); higher = more active; in vitro selection for triplet polymerase activity
Fewer inactive variants are shown than the library holds.
We begin with a simple list: items and their reported polymerase ribozyme fitness (log ratio).
Write the value as a bare number.

Known results for variants:
- alteration: "C118G A119G"
  result value: 0.312
- alteration: "C79U C85U"
  result value: -1.94

(Q) Which polymerase ribozyme fitness (log ratio) value belongs to A3U G25C C38U C85A C116A C123U ?
(A) -2.27

(Q) Which polymerase ribozyme fitness (log ratio) value belongs to C57A G84U ?
(A) -1.29

(Q) Which polymerase ribozyme fitness (log ratio) value belongs to C10A G92A ?
(A) -4.08

(Q) Which polymerase ribozyme fitness (log ratio) value belongs to A20C U53A U55A ?
(A) -2.52

(Q) Which polymerase ribozyme fitness (log ratio) value belongs to A19U G50U C51A C96U A119G ?
(A) -3.91

(Q) Which polymerase ribozyme fitness (log ratio) value belongs to A17U A41C G94C ?
(A) -1.13

(Q) Which polymerase ribozyme fitness (log ratio) value belongs to A3U U56A ?
(A) -1

(Q) Which polymerase ribozyme fitness (log ratio) value belongs to U55G G94A A98U C118A ?
(A) -1.56

(Q) Which polymerase ribozyme fitness (log ratio) value belongs to C57U A97G ?
(A) -0.11

(Q) Which polymerase ribozyme fitness (log ratio) value belongs to A52C G92U G152U ?
(A) -3.32

(Q) Which polymerase ribozyme fitness (log ratio) value belongs to U56A U82C C93U ?
(A) -1.41
